tested on: Digitaria; assay: Microscreen, post-emergence herbicidal action (Example B3); format: in vivo; conditions: 250 g/ha, evaluated after 9 or 13 days, scale of eleven ratings (10=total damage, 0=no action)
PARAMETER_MEASURED: Digitaria, herbicidal action rating

                                    compound                   parameter_measured  recorded_value
 0  O=C1CCCC(O)=C1C(=O)c1ccc(C(F)(F)F)c(-n2cccn2)n1 [Compound 1.080]  Digitaria, herbicidal action rating               5
 1  CC(C)=NOCCOc1nc(C(=O)C2=C(O)C(C)(C)C(=O)C(C)(C)C2=O)ccc1C(F)(F)F [Compound 2.010]  Digitaria, herbicidal action rating               3
 2  Cc1nc(C(=O)C2=C(O)CCCC2=O)ccc1C(F)(F)F [Compound 1.211]  Digitaria, herbicidal action rating               5
 3  COc1nc(C(=O)C2=C(O)CCCC2=O)ccc1C(F)(F)F [Compound 1.096]  Digitaria, herbicidal action rating               8
 4  CC1(c2nc(C(=O)C3=C(O)CCCC3=O)ccc2C(F)(F)F)OCCO1 [Compound 1.192]  Digitaria, herbicidal action rating               7
 5  CCN(CC)c1nc(C(=O)C2=C(O)C(C)(C)C(=O)C(C)(C)C2=O)ccc1C(F)(F)F [Compound 2.060]  Digitaria, herbicidal action rating               9
 6  COCCNc1nc(C(=O)C2=C(O)C(C)(C)C(=O)C(C)(C)C2=O)ccc1C(F)(F)F [Compound 2.064]  Digitaria, herbicidal action rating               9
 7  CC1CN(c2nc(C(=O)C3=C(O)C(C)(C)C(=O)C(C)(C)C3=O)ccc2C(F)(F)F)CC(C)O1 (centres unmarked) [Compound 2.075]  Digitaria, herbicidal action rating               7
 8  Cc1cc(-c2nc(C(=O)C3=C(O)C(C)(C)C(=O)C(C)(C)C3=O)ccc2C(F)(F)F)on1 [Compound 2.202]  Digitaria, herbicidal action rating               6
 9  CN(C(=O)c1ccccc1)c1nc(C(=O)C2=C(O)C(C)(C)C(=O)C(C)(C)C2=O)ccc1C(F)(F)F [Compound 2.090]  Digitaria, herbicidal action rating               2
10  CCN(CC)c1nc(C(=O)C2=C(O)CCCC2=O)ccc1C(F)(F)F [Compound 1.060]  Digitaria, herbicidal action rating               4
11  O=C1CCCC(O)=C1C(=O)c1ccc(OCC(F)(F)F)c(N2CCOCC2)n1 [Compound 1.094]  Digitaria, herbicidal action rating               8
12  C=C(OCC)c1nc(C(=O)C2=C(O)CCCC2=O)ccc1C(F)(F)F [Compound 1.189]  Digitaria, herbicidal action rating               7
13  CN(C(=O)c1ccccc1)c1nc(C(=O)C2=C(O)CCCC2=O)ccc1C(F)(F)F [Compound 1.091]  Digitaria, herbicidal action rating               2
14  CN(C)c1nc(C(=O)C2=C(O)CCCC2=O)ccc1C(F)(F)F [Compound 1.059]  Digitaria, herbicidal action rating               7
15  O=C1CCCC(O)=C1C(=O)c1ccc(C(F)(F)F)c(Cl)n1 [Compound 1.095]  Digitaria, herbicidal action rating               3
16  N#Cc1nc(C(=O)C2=C(O)CCCC2=O)ccc1C(F)(F)F [Compound 1.212]  Digitaria, herbicidal action rating               3
17  Cc1cc(-c2nc(C(=O)C3=C(O)CCCC3=O)ccc2C(F)(F)F)on1 [Compound 1.204]  Digitaria, herbicidal action rating               8
18  O=C1CCCC(O)=C1C(=O)c1ccc(C(F)(F)F)c(-c2ccc(C(F)(F)F)cc2)n1 [Compound 1.209]  Digitaria, herbicidal action rating               8
19  O=C1CCCC(O)=C1C(=O)c1ccc(C(F)(F)F)c(-n2cncn2)n1 [Compound 1.082]  Digitaria, herbicidal action rating               3
